# test-system: WNV NS2B/NS3 protease (West Nile virus)
# Sequence (P06935 1502-1680): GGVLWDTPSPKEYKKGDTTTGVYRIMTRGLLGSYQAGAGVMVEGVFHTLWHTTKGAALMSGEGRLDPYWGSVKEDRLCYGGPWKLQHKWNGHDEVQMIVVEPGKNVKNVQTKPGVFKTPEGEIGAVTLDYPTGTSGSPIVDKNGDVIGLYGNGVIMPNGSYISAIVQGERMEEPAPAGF
# Sequence (P06935 1419-1466): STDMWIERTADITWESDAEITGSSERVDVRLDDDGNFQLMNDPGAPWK
# assay-summary: In vitro NS2B/NS3 protease inhibition (fluorescent substrate Pyr-RTKR-AMC, progress curve method)
# Assay type: biochemical
Assign Ki to each entry below.
Give bare numbers, in µM.

Worked set:
## Task What is its Ki for WNV NS2B/NS3 protease (West Nile virus)? Entry: N=C(N)NCCCC(NC(=O)[C@H](CCCNC(=N)N)NC(=O)[C@H](CCCCN)NC(=O)OCc1ccccc1)P(=O)(Oc1ccccc1)Oc1ccccc1 (stereo partly drawn)
## Result 3

## Task Check N=C(N)NCCC[C@@H](NC(=O)[C@@H](CCCCN)NC(=O)OCc1ccccc1)C(=O)NC(Cc1ccc(NC(=N)N)cc1)P(=O)(Oc1ccccc1)Oc1ccccc1 (stereo partly drawn) too.
## Result 0.4

Consider now this further compound.
## Task What is its Ki for WNV NS2B/NS3 protease (West Nile virus)? Entry: N=C(N)NCCC[C@H](NC(=O)[C@H](CCCCN)NC(=O)OCc1ccccc1)C(=O)NC(CCCCN)P(=O)(Oc1ccccc1)Oc1ccccc1 (stereo partly drawn)
## Result 8
